Item-by-item account of inhibition at 1 µM
Test system: human ovarian cancer cell A2780
ASSAY EXPLANATION: proliferation inhibitory activity against A2780 cells (CellTiter-Glo)
Type: cell-based
PROTOCOL CONDITIONS: A2780, 72 h, 1 μM test compound, 3 days of culture, read-out: proliferation inhibitory rate (%) of A2780 cells
# output: bare number, implied unit %

>>> reported_result("N#CCCCn1cc(-c2cccc(CC(=O)Nc3cc(N4CC[C@@](C#N)(C5CC5)C4=O)ccn3)c2)cn1")
69
>>> reported_result("Cc1cc(-c2cccc(CC(=O)Nc3cc(N4CC[C@@](C#N)(C5CC5)C4=O)cc(C)n3)c2)cnn1")
67
>>> reported_result("N#C[C@@]1(C2CC2)CCN(c2ccnc(NC(=O)Cc3cccc(-c4cnn(C(F)F)c4)c3)c2)C1=O")
86
>>> reported_result("Cc1cc(N2CC[C@@](C#N)(C3CC3)C2=O)cc(NC(=O)Cc2cc(F)cc(-c3ccc(=O)n(C)c3)c2)n1")
97

Q: Form field: reported inhibition at 1 µM of Cc1cc(N2CC[C@@](C#N)(C3CC3)C2=O)nc(NC(=O)Cc2cccc(-c3cnn(C)c3)c2)n1
Result: 73

Q: Form field: reported inhibition at 1 µM of CC(C)(O)Cn1cc(-c2cccc(CC(=O)Nc3cc(N4CC[C@@](C#N)(C5CC5)C4=O)ccn3)c2)cn1
Result: 69

====

Tested on: human ovarian cancer cell A2780
ASSAY EXPLANATION: proliferation inhibitory activity against A2780 cells (CellTiter-Glo)
Type: cell-based
PROTOCOL CONDITIONS: A2780, 72 h, 1 μM test compound, 3 days of culture, read-out: proliferation inhibitory rate (%) of A2780 cells
Fulfilled means recorded inhibition at 1 µM is 80% or above; Not fulfilled means it is below 80%.

The examples below pair each entry with its known result.
>>> qualitative_label("Cc1cc(N2CC[C@@](C#N)(C3CC3)C2=O)cc(NC(=O)Cc2cc(F)cc(-c3cn(C)nn3)c2)n1")
"Fulfilled"
>>> qualitative_label("Cc1cc(N2CC[C@@](C#N)(C3CC3)C2=O)cc(NC(=O)Cc2cccc3ccccc23)n1")
"Not fulfilled"
>>> qualitative_label("Cc1cc(N2CC[C@@](C#N)(C3CC3)C2=O)cc(NC(=O)Cc2cc(F)cc(-c3cnn(C)c3)c2)n1")
"Fulfilled"
>>> qualitative_label("CC(C)(O)CCn1cc(-c2cccc(CC(=O)Nc3cc(N4CC[C@@](C#N)(C5CC5)C4=O)ccn3)c2)cn1")
"Fulfilled"

Q: // inclusive: inhibition at 1 µM at least 80%? input: N#C[C@@]1(C2CC2)CCN(c2ccnc(NC(=O)Cc3cccc(-c4cn[nH]c4)c3)c2)C1=O
Result: Not fulfilled

Q: // inclusive: inhibition at 1 µM at least 80%? input: N#C[C@@]1(C2CC2)CCN(c2ccnc(NC(=O)Cc3cccc(-c4cnn(CC(F)(F)C(F)F)c4)c3)c2)C1=O
Result: Not fulfilled

====

Item-by-item account of inhibition at 1 µM
Tested on: human ovarian cancer cell A2780
ASSAY EXPLANATION: proliferation inhibitory activity against A2780 cells (CellTiter-Glo)
Type: cell-based
PROTOCOL CONDITIONS: A2780, 72 h, 1 μM test compound, 3 days of culture, read-out: proliferation inhibitory rate (%) of A2780 cells
# output: bare number, implied unit %

>>> reported_result("Cc1cc(-c2cccc(CC(=O)Nc3cc(N4CC[C@@](C#N)(C5CC5)C4=O)ccn3)c2)sn1")
61
>>> reported_result("N#C[C@@]1(C2CC2)CCN(c2ccnc(NC(=O)Cc3cccc(-c4ccncc4)c3)c2)C1=O")
60

Q: Form field: reported inhibition at 1 µM of Cn1cc(-c2cccc(CC(=O)Nc3cc(N4CC[C@@](C#N)(C5CC5)C4=O)cc(C(F)F)n3)c2)cn1
Result: 75

Q: Form field: reported inhibition at 1 µM of N#C[C@@]1(C2CC2)CCN(c2ccnc(NC(=O)Cc3cccc(-c4cnn(CC5CC(F)(F)C5)c4)c3)c2)C1=O
Result: 74

Q: Form field: reported inhibition at 1 µM of CC1(Cn2cc(-c3cccc(CC(=O)Nc4cc(N5CC[C@@](C#N)(C6CC6)C5=O)ccn4)c3)cn2)COC1
Result: 63

Data origin: patent US10800754B2
